# measurementContext: buffer; pH 7.4; 200.0 µM
For each record, write down the corresponding solubility kinetic.
Write the answer as a number in µg/mL, unit excluded.

Reported solubility kinetic, compound Cc1cccc(C(=O)Nc2cccc(C(=O)Nc3cc(C)ccn3)c2)c1 : ____ 0.9

Query: solubility kinetic; subject: O=C(Nc1ccncc1)Nc1ccc(Br)cc1Cl 1.9

Item O=C(c1noc2c1CCCC2)N1CCc2ccccc2C1 has what recorded solubility kinetic? 40.8

Tell me the measured solubility kinetic of O=C(Nc1ccccc1)Oc1ccccc1N1CCOCC1 , please. 31.9

Request the reported solubility kinetic associated with Cc1ncoc1C(=O)N1CCCC(C(=O)c2cccc3ccccc23)C1 (stereo not drawn) 50.3

Tell me the measured solubility kinetic of CCOc1ccc(CCNC(=O)COC(=O)/C=C/c2ccco2)cc1OCC , please. 39.5

Sample O=c1[nH]c2ccccc2nc1Cc1ccc([N+](=O)[O-])cc1 — what was its solubility kinetic? 3.6

Name the recorded solubility kinetic for COc1ccccc1Nc1nc(NCC(C)C)nc(N)c1[N+](=O)[O-] . 0.3

So what does the record say about solubility kinetic for O=C(COC(=O)/C=C/c1ccc(OC(F)F)cc1)Nc1ccc2[nH]c(=O)[nH]c2c1 ? 5.3

Value lookup for solubility kinetic; key = Cc1cccc(-c2noc(CCC(=O)Nc3ccc(C(N)=O)cc3)n2)c1 0.5

Reported solubility kinetic, compound CC(C)(CNc1ccc([N+](=O)[O-])cc1Cl)N1CCOCC1 : ____ 1.4

solubility kinetic lookup needed for CC(C)Cn1c(=S)[nH]c2cc(Cl)ccc21 , thanks. 18.5

Query: solubility kinetic; subject: O=C(COC(=O)c1ccc2ccccc2n1)c1ccc(F)cc1 16.8

Which solubility kinetic reading was recorded for the compound CCOC(=O)c1cnc2cc(F)c(F)cc2c1N1CCN(C)CC1 ? 30.7

Consider the compound shown here: NC(=O)c1cccnc1Oc1ccc(Cl)cc1Cl What is its recorded solubility kinetic? 37.1

Returns the measured solubility kinetic for the input compound. Input: CCOc1ncccc1C(=O)OCC(=O)NC1CCCCC1 34.2

Give its solubility kinetic value. Item: CN1c2ccccc2C(=O)/C(=C\Nc2ncccn2)S1(=O)=O 2.8

Requested field: solubility kinetic. Item: Cc1ccc(NC(=S)NC2CCSc3ccccc32)cc1 (stereo not drawn) 2.7

What solubility kinetic value was documented for this compound, O=C(O)/C=C/c1ccc2noc(-c3ccccc3)c2c1 ? 3.7

Please look up its solubility kinetic: Cc1cc(F)ccc1NS(=O)(=O)c1cccc2nsnc12 44.2

Quick one: solubility kinetic for O=C(/C=C/c1ccc2c(c1)OCO2)NCc1ccncc1 ? 42.1

Dear colleague, I am looking for the recorded solubility kinetic of the following compound: COc1ccccc1-c1noc(-c2ccccc2C(=O)NCc2ccco2)n1 49.4

# input compound: O=C1CC(N2CCc3ccccc32)C(=O)N1c1ccccc1 (stereo not drawn) ; wanted: its solubility kinetic 37.3

---

# measurementContext: buffer; pH 7.4; 200.0 µM
readout: solubility kinetic (µg/mL)
// return numeric value only (unit: µg/mL, not printed)

# solubility kinetic lookup, item Fc1cccc(NC(=S)Nc2cccc3ccccc23)c1 19.6

Sample CC(C)N(Cc1ccccc1)C(=O)CN1c2cccc3cccc(c23)S1(=O)=O — what was its solubility kinetic? 11

Item under review: COC(=O)c1sccc1NC(=S)Nc1ccc(OC)cc1 . Reported solubility kinetic? 35.3

Entry O=C1[C@@H]2C(c3ccc(F)cc3)=NO[C@@H]2C(=O)N1Cc1ccccc1 : reported solubility kinetic = ? 7.8

---

# measurementContext: buffer; pH 7.4; 200.0 µM
Label Yes when solubility kinetic >= 30 µg/mL; otherwise No.

Does COC(=O)c1ccc(COc2ccc(NC(C)=O)cc2)o1 have a reported solubility kinetic of at least 30 µg/mL? Yes

Is solubility kinetic at least 30 µg/mL? Consider O=C(O)CCN1C(=O)c2ccc(Oc3ccc([N+](=O)[O-])cc3)cc2C1=O Yes

# check: solubility kinetic of CNc1nc(NCc2ccccc2)c2ccccc2n1.Cl is greater than or equal to 30 µg/mL Yes

Hi team, for CC(C)c1ccc(/C=C/c2[nH]c(=O)[nH]c(=O)c2[N+](=O)[O-])cc1 , is the recorded solubility kinetic at or above 30 µg/mL? No

Is solubility kinetic for Cc1ccc(N(CC(=O)N2CCOCC2)S(C)(=O)=O)cc1Cl at or above 30 µg/mL? Yes

Decide: solubility kinetic of Cc1cccc(C(=O)OC2CCCN(C)C2)c1C.Cl (centres undefined) >= 30 µg/mL? Yes

hey, is solubility kinetic for this one >= 30 µg/mL? Cc1ccc2nsnc2c1NC(=O)c1cncc(Br)c1 No

# check: solubility kinetic of CC1CCN(c2nc3c(cc2C#N)COC(C)(C)C3)CC1 is greater than or equal to 30 µg/mL No

Answer whether solubility kinetic of Cc1ccc(C(=O)OCC(=O)NCc2ccc3c(c2)OCO3)o1 is greater than or equal to 30 µg/mL. Yes

Decide: is the reported value of solubility kinetic for N#Cc1ccc(C(=O)OCC(=O)N2CCN(C(=O)c3ccco3)CC2)cc1 equal to or greater than 30 µg/mL? Yes

Given CN(C)CC/C=C1/c2ccc(F)cc2Sc2ccc(Cl)cc21.Cl , state whether its solubility kinetic is at least 30 µg/mL. No

Does the reported solubility kinetic for O=C1[C@@H]2CSCN2C(=O)CN1Cc1ccccc1F fall at or above the 30 µg/mL mark? Yes

Entry O=C(O)c1c(N2CCCCC2)ccc([N+](=O)[O-])c1N1CCCCC1 : is its solubility kinetic no less than 30 µg/mL? Yes

Confirm if solubility kinetic reported for the compound Cc1oc(-c2cccs2)nc1CN1CCC(C(=O)N2CCCC2)CC1 is 30 µg/mL or above. Yes

Hi team, for COc1ccc(F)cc1S(=O)(=O)NCCCn1ccnc1 , is the recorded solubility kinetic at or above 30 µg/mL? Yes

Please tell me: is the compound O=[N+]([O-])c1cccc2nc(-c3ccccc3)c(-c3ccccc3)nc12 at or over 30 µg/mL in terms of solubility kinetic? No

Could you verify whether the entry N#Cc1ccc(S(=O)(=O)NC2CCCCNC2=O)cc1 (centres undefined) shows solubility kinetic of no less than 30 µg/mL? Yes

Test whether the compound O=C(NCc1nc2ccccc2[nH]1)c1ccccc1F records solubility kinetic of 30 µg/mL or higher. Yes

Decide: solubility kinetic of COc1ccc2c(c1OC)CN1CCc3cc4c(cc3C1C2)OCO4 (centres undefined) >= 30 µg/mL? No

Check this compound for solubility kinetic at or above 30 µg/mL: O=C(O)C1CCCCC1C(=O)Nc1ccc2c(c1)OCO2 (centres undefined) Yes

Would you say O=C(C1COc2ccccc2O1)N1CCCCC1 (centres undefined) shows solubility kinetic at minimum 30 µg/mL? Yes

Textbook exercise: given the entry CC(=O)Nc1ccccc1OCC(=O)NC1CCCCC1C (centres undefined) , state whether its solubility kinetic is greater than or equal to 30 µg/mL. Yes

Could you verify whether the entry Cc1cccc(-c2onc3ccc(C(=O)/C=C/N(C)C)cc23)c1 shows solubility kinetic of no less than 30 µg/mL? No

---

# measurementContext: buffer; pH 7.4; 200.0 µM
readout: solubility kinetic (µg/mL)
Give the value in µg/mL but do not write µg/mL after it.

Please report the recorded solubility kinetic for Cc1ccnc(NCc2ccc(Br)cc2)c1 . 2.3

Item COc1cccc(CC(=O)NC2CCSc3ccccc32)c1 (stereo not drawn) has what recorded solubility kinetic? 20.9

Fill in: solubility kinetic of Cn1cccc1C(=O)NCCc1ccc(Cl)cc1 is ___ 36.1

Which solubility kinetic value is on record for NC(=S)Nc1cc(Cl)cc(Cl)c1 ? 33

GET /values?readout=solubility kinetic&item= O=C(/C=C/c1cccc(O)c1)c1ccc(N2CCOCC2)cc1 23.2

GET /values?readout=solubility kinetic&item= Cc1cc(SCC(=O)NC2CCCC2)nc2ccccc12 8.8

// lookup solubility kinetic for Cc1onc(-c2c(Cl)cccc2Cl)c1C(=O)N=S(C)(=O)c1ccccc1 (stereo not drawn) 1.8

What value of solubility kinetic has been recorded for this entry: CCCN1C(=O)/C(=C/c2ccc3c(c2)OCO3)NC1=S 1.9

I would be grateful if you could share the reported solubility kinetic for CC1Oc2ccccc2OC1C(=O)Nc1nccs1 (stereo not drawn) . 18.1

For the compound CC(SCC(=O)Nc1ccccc1Br)c1nc2ccccc2c(=O)[nH]1 (stereo not drawn) , what solubility kinetic is on record? 3.2

Look at this compound and give its reported solubility kinetic. CC(c1ccccc1)C1CC(=O)N(c2ccccc2)C1=O (stereo not drawn) 41.1

Requested read-out: solubility kinetic. Entry: CCN(CC)c1nc2ccccc2[nH]c1=O 10.7

Fill in: solubility kinetic of COc1ccc(N(C)S(=O)(=O)c2cccc(C(=O)OCC(=O)N3CC(C)CC(C)C3)c2)cc1 (stereo not drawn) is ___ 7.3

# lookup: solubility kinetic of CC(C)(C)NC(=O)CSc1nc(-c2ccc(F)cc2)cs1 6.6

Any idea what its solubility kinetic is? The compound is CCOc1cc(C(=O)N=c2sccn2C)ccc1OC(F)F 45.4

# solubility kinetic lookup, item O=C(CCc1ccccc1)Nc1ccc(S(=O)(=O)NC2=NCCCCC2)cc1 56.6

What solubility kinetic value was documented for this compound, Cc1ccc(NC(=O)c2cc(CC(C)C)nc3ccccc23)cc1 ? 0.6

Name the reported solubility kinetic value associated with the compound Cc1ccc(C)c(OCCCN2CCc3ccccc3C2)c1.Cl 14

Value lookup for solubility kinetic; key = COc1ccc2[nH]c(C(=O)N(C)Cc3ccccc3)c(C)c2c1 9.1

What does the data say about its solubility kinetic? Entry: O=C(Nc1ccccc1O)C(c1ccccc1)c1ccccc1 9

solubility kinetic for CCOC(=O)c1sc(=S)n(-c2ccc(OC)cc2)c1C ? 18.1
